Assay: Evaluation of pharmacokinetic parameters for Estradiol after multiple topical applying Estradiol transdermal systems to the abdomen or the buttocks of 17 healthy, postmenopausal female subjects.
Type: ADME, organism-based
Set-up: dose 0.075 mg/day, dose 0.1 mg/day, dose 0.0375 mg/day, dose 0.05 mg/day, route topical to abdomen, route topical to buttocks
Conditions: human, in vivo, topical or ocular; dose 0.05 mg/day, dosed compound id 17, dosed compound name ESTRADIOL, gender female, regimen Multiple dose, route topical to abdomen, tissue Plasma; read-out: Cmin(80hr)
Readout type: concentration at 80 h (ng/mL)

- C[C@]12CC[C@@H]3c4ccc(O)cc4CC[C@H]3[C@@H]1CC[C@@H]2O: 0.041
